test system: MDA-MB-231 breast; assay: NCI-60 one-dose screen, 48 h (100 = growth as untreated, 0 = no growth, -100 = all killed); conditions: 10 µM unless noted
The panel holds about 83,000 compounds, 20% with a hit somewhere; the sample as a whole holds those more often.
measurement-name: growth (%)
Provide only the numeric value, understood in %.

Illustrative cases are given below, each with its answer.
Find the recorded growth belonging to CC(C)[C@@H]1NC(=O)[C@]2(C)CSC(=N2)c2csc(n2)CNC(=O)C[C@@H](/C=C/CCS)OC1=O and report it.
12

Moving on to Cn1cc(-c2csc(-c3cn(CCCCN4CCCCC4)c4ccccc34)n2)c2cccnc21
-63.5

Moving on to CC[C@H](C)[C@H](NC(=O)[C@H]1CCCCN1C)C(=O)N(C)[C@H](C[C@@H](OC(C)=O)c1cccc(C(=O)N[C@@H](Cc2ccccc2)C[C@H](C)C(=O)O)n1)C(C)C
-0.17

Moving on to CNC12C3C4C1C1C2C3C41C(=O)N[C@H](C(=O)N(C)[C@H](C[C@@H](OC(C)=O)c1nc(C(=O)N[C@@H](Cc2ccccc2)C[C@H](C)C(=O)OC)cs1)C(C)C)C1CC1 (some centres not stated)
0.928

Moving on to CC12CCC3C(CCC4Cc5[nH]c6ccccc6c5CC43C)C1CCC2O (configuration not stated)
37.1

New cases:
Find the recorded growth belonging to Cc1cc(C)c(CBr)c(C)c1 and report it.
106

Moving on to COC(=O)[C@@H](C)C[C@H](Cc1ccccc1)NC(=O)c1csc([C@@H](C[C@H](C(C)C)N(C)C(=O)[C@@H](NC(=O)[C@H]2CCCN2C)C2CC2)OC(C)=O)n1
6.59
